// data source = patent US20250270343A1

- target_or_test_system: T1, soluble cynomolgus GPNMB (recombinant extracellular domain) (cynomolgus, UniProt Q14956 23-499 (human entry), limits assumed)
- T1 chain: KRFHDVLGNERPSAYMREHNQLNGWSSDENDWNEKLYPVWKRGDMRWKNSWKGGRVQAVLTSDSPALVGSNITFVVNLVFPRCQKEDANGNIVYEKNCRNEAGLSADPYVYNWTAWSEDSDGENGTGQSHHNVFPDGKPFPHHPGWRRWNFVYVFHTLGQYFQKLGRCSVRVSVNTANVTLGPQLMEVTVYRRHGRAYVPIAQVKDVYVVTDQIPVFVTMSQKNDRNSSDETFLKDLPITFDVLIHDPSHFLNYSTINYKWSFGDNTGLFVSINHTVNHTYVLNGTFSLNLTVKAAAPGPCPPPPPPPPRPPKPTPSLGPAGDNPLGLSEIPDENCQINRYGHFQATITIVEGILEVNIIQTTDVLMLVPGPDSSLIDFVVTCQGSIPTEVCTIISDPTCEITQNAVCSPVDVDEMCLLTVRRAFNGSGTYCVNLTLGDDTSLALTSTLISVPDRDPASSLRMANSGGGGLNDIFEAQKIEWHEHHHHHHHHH
- test_summary: SPR Biacore, IgG captured
assay_endpoint: Kd (nM)
Give the value, in units of nM, as a plain number.

binder | Kd / nM
anti-GPNMB antibody GPN-91 (antibody, V domains shown) VH: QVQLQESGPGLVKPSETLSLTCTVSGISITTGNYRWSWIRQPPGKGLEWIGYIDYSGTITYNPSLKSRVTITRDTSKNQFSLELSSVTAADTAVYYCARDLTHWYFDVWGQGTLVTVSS VL: DIVMTQSPDSLAVSLGERATINCKSSRSVDYYGIGFLNWYQQKPGQPPKLLIYATSHQGSGVPDRFSGSGSGTDFTLTISSLQAEDVAVYYCQQQKERPPTFGGGTKVEIK | 3.6
anti-GPNMB antibody GPN-85 (antibody, V domains shown) VH: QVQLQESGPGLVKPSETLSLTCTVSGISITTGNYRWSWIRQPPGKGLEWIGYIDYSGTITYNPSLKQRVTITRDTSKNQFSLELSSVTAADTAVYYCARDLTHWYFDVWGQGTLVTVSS VL: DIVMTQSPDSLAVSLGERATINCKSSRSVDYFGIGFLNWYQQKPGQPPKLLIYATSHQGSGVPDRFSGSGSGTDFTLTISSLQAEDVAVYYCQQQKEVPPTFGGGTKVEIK | 1.4
anti-GPNMB antibody GPN-89 (antibody, V domains shown) VH: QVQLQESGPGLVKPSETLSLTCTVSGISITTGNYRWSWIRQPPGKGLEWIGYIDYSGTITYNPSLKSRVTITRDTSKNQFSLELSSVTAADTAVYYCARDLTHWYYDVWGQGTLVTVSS VL: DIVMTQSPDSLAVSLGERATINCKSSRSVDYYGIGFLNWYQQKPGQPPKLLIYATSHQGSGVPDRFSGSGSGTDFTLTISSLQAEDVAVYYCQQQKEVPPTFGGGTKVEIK | 3.3

From here, focus on the item given below.
Query anti-GPNMB antibody GPN-90 (antibody, V domains shown) VH: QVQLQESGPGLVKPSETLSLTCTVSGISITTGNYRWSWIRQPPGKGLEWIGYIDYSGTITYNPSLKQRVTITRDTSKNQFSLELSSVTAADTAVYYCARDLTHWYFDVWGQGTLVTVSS VL: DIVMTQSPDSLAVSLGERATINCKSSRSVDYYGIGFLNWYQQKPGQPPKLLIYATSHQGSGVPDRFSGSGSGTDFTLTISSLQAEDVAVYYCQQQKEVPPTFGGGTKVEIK yields Kd of 3.2
